Values from patent US7034016B2

# tgt: cyclic GMP specific phosphodiesterase (PDE 5) (Homo sapiens)
# Construct: isolated from human platelet lysates by ion exchange chromatography using a Mono-Q column; from tissue; host or cells: human platelets (lysate, Mono-Q ion exchange fraction)
# protocol_description: PDE 5 inhibitory activity (enzyme isolated from human platelet lysates, [3H]-cyclic GMP substrate)
# Format: biochemical
# protocol_conditions: PDE 5 from human platelet lysates; 0.25 mM [3H]-cyclic GMP as substrate
Label true when IC50 is strictly below 4 nM; at or above that, label false.

>>> group("CCCCOc1ccc(S(=O)(=O)N2CCN(C)CC2)cc1-c1nc2c([nH]1)c1nncn1c(=O)n2CC")
"false"
>>> group("CCCOc1ccc(S(=O)(=O)N2CCCN(CCO)CC2)cc1-c1nc2c([nH]1)c1nncn1c(=O)n2CCC")
"true"
>>> group("CCCCn1c(=O)n2cnnc2c2[nH]c(-c3cc(S(=O)(=O)N4CCN(C(C)(C)CO)CC4)ccc3OCCC)nc21")
"true"
>>> group("CCCOc1ccc(S(=O)(=O)N2CCN[C@@H](C)C2)cc1-c1nc2c([nH]1)c1nncn1c(=O)n2CCC")
"true"

Query :: Record `CCCOc1ccc(S(=O)(=O)N2CCN(C)CC2)cc1-c1nc2c([nH]1)c1nncn1c(=O)n2CC` : is its IC50 strictly below 4 nM?
Result :: false
